Sourced from paper PMC5540273

- Tested on: STK16
- cond: concentration: 1 μM,replicates: in singlicate; n = 1;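 further: KINOMEscan kinase panel screen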
property measured: %Inh (%)
Express the result in % but write the number alone.

// query %Inh value for entry C=CC(=O)Nc1cc2c(Nc3ccc(F)c(Cl)c3)ncnc2cc1OCCCN1CCOCC1
0

// query %Inh value for entry COc1ccc(C[C@@H](CN)NC(=O)c2cc(Br)c(-c3ccnc4[nH]ccc34)s2)cc1.Cl.Cl
55

// query %Inh value for entry CN(C)CCOc1ccc(-c2cc(-c3c[nH]nc3-c3ccccn3)ccn2)cc1
75

// query %Inh value for entry Cl.Cl.NC[C@H](Cc1ccc(C(F)(F)F)cc1)NC(=O)c1cc(Br)c(-c2ccnc3[nH]ccc23)s1
16

// query %Inh value for entry Nc1nc(Nc2ccccc2)cc(-c2ccc3c(N)n[nH]c3c2)n1
59

// query %Inh value for entry Cc1occc1-c1nc(N)c(OC[C@@H](N)Cc2c[nH]c3ccccc23)cc1-c1cc2c(C)n[nH]c2cn1
3

// query %Inh value for entry CNC(=O)c1ccccc1Sc1ccc2c(/C=C/c3ccccn3)n[nH]c2c1
12

// query %Inh value for entry Cc1ccc2c(-c3ccncc3)c(-c3ccc(F)cc3)nn2c1.Cl
8

* * *

- Tested on: LATS2
- cond: concentration: 1 μM,replicates: in singlicate; n = 1
// assign class 1 if %Inh falls strictly below 20%, else class 0 (ties count as class 0)

Would you kindly verify if %Inh of CCN(CC)CCCCNc1ncc2cc(-c3c(Cl)cccc3Cl)c(NC(=O)NC(C)(C)C)nc2n1 is strictly less than 20%?
class 1

Would you kindly verify if %Inh of CC(C)Nc1cc(-c2ccc3c(N)n[nH]c3c2)nc(N)n1 is strictly less than 20%?
class 1

Would you kindly verify if %Inh of CNC(=O)c1ccccc1Sc1ccc2c(/C=C/c3ccccn3)n[nH]c2c1 is strictly less than 20%?
class 1

Would you kindly verify if %Inh of Cc1cc2cn[nH]c2cc1-c1cccc2c(N)c(C(N)=O)nnc12 is strictly less than 20%?
class 1

Would you kindly verify if %Inh of Cc1n[nH]c2ccc(-c3cc(OC[C@@H](N)Cc4ccccc4)cnc3-c3ccoc3)cc12.O=C(O)C(F)(F)F.O=C(O)C(F)(F)F is strictly less than 20%?
class 0

Would you kindly verify if %Inh of CCn1c(-c2nonc2N)nc2c(C#CC(C)(C)O)nc(OCCN)cc21.Cl.Cl is strictly less than 20%?
class 0

Would you kindly verify if %Inh of CN(C)CC(O)COc1ccc(Nc2nccc(-c3cnn4nc(N5CCOCC5)ccc34)n2)cc1 (stereo not shown) is strictly less than 20%?
class 0

* * *

- Tested on: STK36
- cond: concentration: 1 μM,replicates: in singlicate; n = 1
property measured: %Inh (%)
Express the result in % but write the number alone.

// query %Inh value for entry NC(=O)c1cc(-c2ccccc2)cc2c(C3CCNCC3)c[nH]c12
3

// query %Inh value for entry CNC(=O)c1ccccc1Sc1ccc2c(/C=C/c3ccccn3)n[nH]c2c1
24

// query %Inh value for entry Nc1nc(Nc2ccccc2)cc(-c2ccc3c(N)n[nH]c3c2)n1
24

// query %Inh value for entry Cl.Oc1cc(-c2nc(-c3ccccc3)[nH]c2-c2ccncc2)ccc1Cl
53

// query %Inh value for entry Cc1n[nH]c2ccc(-c3cc(OC[C@@H](N)Cc4ccccc4)cnc3-c3ccoc3)cc12.O=C(O)C(F)(F)F.O=C(O)C(F)(F)F
0

// query %Inh value for entry Cc1ccc(-n2nc(C(C)(C)C)cc2NC(=O)Nc2ccc(OCCN3CCOCC3)c3ccccc23)cc1
0

// query %Inh value for entry C[C@@H]1CCN(C(=O)CC#N)C[C@@H]1N(C)c1ncnc2[nH]ccc12
0

// query %Inh value for entry CCN(CC)CCOc1ccc(Nc2ncc3cc(-c4c(Cl)cccc4Cl)c(=O)n(C)c3n2)cc1
99.5

// query %Inh value for entry CN(C)CC(O)COc1ccc(Nc2nccc(-c3cnn4nc(N5CCOCC5)ccc34)n2)cc1 (stereo not shown)
56

// query %Inh value for entry C[C@@H](Oc1cc(-c2cnn(C3CCNCC3)c2)cnc1N)c1c(Cl)ccc(F)c1Cl
0

* * *

Record form. Attribute: %Inh. Fill in for each entry.
- Test system: DDR2
- cond: concentration: 1 μM,replicates: in singlicate; n = 1
The reply must contain the numeric value and, after it, the unit.

// query %Inh value for entry Cl.Cl.NC[C@H](CC1CCCCC1)NC(=O)c1cc(Br)c(-c2ccnc3[nH]ccc23)s1 [GSK1581427]
0%

// query %Inh value for entry O=C(NCCCN1CCOC1=O)c1cnc(NCc2cc(Cl)ccc2Cl)nc1NC1CCCC1
11%

// query %Inh value for entry C[C@@H]1CCN(C(=O)CC#N)C[C@@H]1N(C)c1ncnc2[nH]ccc12
0%

// query %Inh value for entry Cc1occc1-c1nc(N)c(OC[C@@H](N)Cc2c[nH]c3ccccc23)cc1-c1cc2c(C)n[nH]c2cn1 [GSK1660450]
0%

// query %Inh value for entry NC(=O)c1cc(-c2ccccc2)cc2c(C3CCNCC3)c[nH]c12 [GSK301362]
0%

// query %Inh value for entry Cl.Cl.NC[C@H](Cc1ccc(C(F)(F)F)cc1)NC(=O)c1cc(Br)c(-c2ccnc3[nH]ccc23)s1 [GSK1487252]
0%

// query %Inh value for entry C[C@H]1Oc2cc(cnc2N)-c2c(nn(C)c2C#N)CN(C)C(=O)c2ccc(F)cc21
3%

// query %Inh value for entry Cl.Oc1cc(-c2nc(-c3ccccc3)[nH]c2-c2ccncc2)ccc1Cl [SB-386023]
83%

* * *

Record form. Attribute: %Inh. Fill in for each entry.
- Test system: AMPK-alpha2
- Construct: gene PRKAA2
- cond: concentration: 1 μM,replicates: in singlicate; n = 1
Express the result in % but write the number alone.

// query %Inh value for entry C[C@@H]1CCN(C(=O)CC#N)C[C@@H]1N(C)c1ncnc2[nH]ccc12
0

// query %Inh value for entry CN(C)CC(O)COc1ccc(Nc2nccc(-c3cnn4nc(N5CCOCC5)ccc34)n2)cc1 (stereo not shown)
0

// query %Inh value for entry Cc1ccc(-n2nc(C(C)(C)C)cc2NC(=O)Nc2ccc(OCCN3CCOCC3)c3ccccc23)cc1
9

// query %Inh value for entry C[C@H]1Oc2cc(cnc2N)-c2c(nn(C)c2C#N)CN(C)C(=O)c2ccc(F)cc21
11

// query %Inh value for entry C=CC(=O)Nc1cc2c(Nc3ccc(F)c(Cl)c3)ncnc2cc1OCCCN1CCOCC1
0

// query %Inh value for entry CCn1c(-c2nonc2N)nc2c(C#CC(C)(C)O)nc(OCCN)cc21.Cl.Cl
0

// query %Inh value for entry NC(=O)c1cc(-c2ccccc2)cc2c(C3CCNCC3)c[nH]c12
45

* * *

- Tested on: MEK1
- Construct: gene MAP2K1
- cond: concentration: 1 μM,replicates: in singlicate; n = 1
property measured: %Inh (%)
Express the result in % but write the number alone.

// query %Inh value for entry Cc1n[nH]c2ccc(-c3cc(OC[C@@H](N)Cc4ccccc4)cnc3-c3ccoc3)cc12.O=C(O)C(F)(F)F.O=C(O)C(F)(F)F
37

// query %Inh value for entry Cc1cc(C(=O)Nc2ccc(Oc3ccc4nc(NC(=O)C5CC5)cn4n3)cc2)nn1-c1ccccc1
0

// query %Inh value for entry C=CC(=O)Nc1cc2c(Nc3ccc(F)c(Cl)c3)ncnc2cc1OCCCN1CCOCC1
38

// query %Inh value for entry Cc1occc1-c1nc(N)c(OC[C@@H](N)Cc2c[nH]c3ccccc23)cc1-c1cc2c(C)n[nH]c2cn1
0

// query %Inh value for entry Cl.Cl.NC[C@H](Cc1ccc(C(F)(F)F)cc1)NC(=O)c1cc(Br)c(-c2ccnc3[nH]ccc23)s1
0

// query %Inh value for entry C[C@@H]1CCN(C(=O)CC#N)C[C@@H]1N(C)c1ncnc2[nH]ccc12
0

// query %Inh value for entry C[C@@H](Oc1cc(-c2cnn(C3CCNCC3)c2)cnc1N)c1c(Cl)ccc(F)c1Cl
12

// query %Inh value for entry CN(C)CCOc1ccc(-c2cc(-c3c[nH]nc3-c3ccccn3)ccn2)cc1
0

* * *

- Tested on: NEK9
- cond: concentration: 1 μM,replicates: in singlicate; n = 1
Record form. Attribute: %Inh. Fill in for each entry.
Express the result in % but write the number alone.

// query %Inh value for entry CNC(=O)c1ccccc1Sc1ccc2c(/C=C/c3ccccn3)n[nH]c2c1
1

// query %Inh value for entry C[C@@H]1CCN(C(=O)CC#N)C[C@@H]1N(C)c1ncnc2[nH]ccc12
0

// query %Inh value for entry COc1ccc(C[C@@H](CN)NC(=O)c2cc(Br)c(-c3ccnc4[nH]ccc34)s2)cc1.Cl.Cl
0

// query %Inh value for entry CCN(CC)CCCCNc1ncc2cc(-c3c(Cl)cccc3Cl)c(NC(=O)NC(C)(C)C)nc2n1
0

// query %Inh value for entry CCn1c(-c2nonc2N)nc2c(C#CC(C)(C)O)nc(OCCN)cc21.Cl.Cl
0

// query %Inh value for entry Cc1cc2cn[nH]c2cc1-c1cccc2c(N)c(C(N)=O)nnc12
15

// query %Inh value for entry Cc1ccc2c(-c3ccncc3)c(-c3ccc(F)cc3)nn2c1.Cl
0

// query %Inh value for entry Cc1cc(C(=O)Nc2ccc(Oc3ccc4nc(NC(=O)C5CC5)cn4n3)cc2)nn1-c1ccccc1
0

// query %Inh value for entry O=C(NCCNc1ccnc(NCc2ccc(F)cc2)n1)c1cc2ccccc2s1
0

// query %Inh value for entry CC(C)N1C(=O)Cc2cc(Nc3ncc(C(F)(F)F)c(NCc4cccc(S(C)(=O)=O)c4)n3)ccc21
2

// query %Inh value for entry Nc1nc(Nc2ccccc2)cc(-c2ccc3c(N)n[nH]c3c2)n1
11

// query %Inh value for entry C[C@H]1Oc2cc(cnc2N)-c2c(nn(C)c2C#N)CN(C)C(=O)c2ccc(F)cc21
3

// query %Inh value for entry NC(=O)c1cc(-c2ccccc2)cc2c(C3CCNCC3)c[nH]c12
21

// query %Inh value for entry O=C(NCCCN1CCOC1=O)c1cnc(NCc2cc(Cl)ccc2Cl)nc1NC1CCCC1
0

// query %Inh value for entry Cc1occc1-c1nc(N)c(OC[C@@H](N)Cc2c[nH]c3ccccc23)cc1-c1cc2c(C)n[nH]c2cn1
67

// query %Inh value for entry CN(C)CC(O)COc1ccc(Nc2nccc(-c3cnn4nc(N5CCOCC5)ccc34)n2)cc1 (stereo not shown)
55
